- Tested on: BJ
- ASSAY METHOD TEXT: cells
- Assay type: functional, cell-based
- STUDY CONDITIONS: Homo sapiens
Calls of active or inactive are those of the source.
READOUT: EC50

Q: Lab request: please report EC50 under test system BJ for O=C(CCCN1C(=O)/C(=C/c2cccc(Br)c2)SC1=S)NCCCN1CCOCC1
Result: 14.7 µM (active)

----------
- TARGET ENTITY: Cytochrome P450 2D6 (Homo sapiens, UniProt P10635);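 further: CYP2D6 member of a cytochrome P450 panel assay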
- Sequence (P10635 whole entry): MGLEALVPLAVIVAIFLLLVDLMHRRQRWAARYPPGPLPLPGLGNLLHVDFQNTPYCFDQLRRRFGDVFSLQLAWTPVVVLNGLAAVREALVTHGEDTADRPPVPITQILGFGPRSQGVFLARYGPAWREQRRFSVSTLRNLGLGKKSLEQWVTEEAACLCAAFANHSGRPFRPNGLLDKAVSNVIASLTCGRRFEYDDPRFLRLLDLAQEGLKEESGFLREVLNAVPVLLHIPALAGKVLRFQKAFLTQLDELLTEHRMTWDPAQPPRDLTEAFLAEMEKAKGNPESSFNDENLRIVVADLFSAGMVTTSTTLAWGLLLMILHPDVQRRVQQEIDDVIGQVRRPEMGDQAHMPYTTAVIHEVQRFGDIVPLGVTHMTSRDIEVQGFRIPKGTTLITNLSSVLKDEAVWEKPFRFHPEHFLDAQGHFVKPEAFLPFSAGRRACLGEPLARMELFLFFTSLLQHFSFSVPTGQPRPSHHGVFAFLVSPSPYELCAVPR
READOUT: AC50

Before answering, review these 5 worked examples.
CN1[C@@H]2CC[C@H]1C[C@@H](OC(=O)c1c[nH]c3ccccc13)C2: 31.6 µM (inconclusive)
c1ccc2c(NCCN3CCOCC3)nc(-c3ccoc3)nc2c1: 25.1 µM (inconclusive)
OCCNc1nc(SCc2ccccc2)nc2sc3c(c12)CCC3: 25.1 µM (inconclusive)
CCn1c(SCC(=O)NC2CCCCC2)nc2c(c1=O)SC(C)C2 (stereo unspecified): 1.58 µM (inconclusive)
Cc1ccc(C(=O)Nc2nc3ccccc3n3nnnc23)cc1: 12.6 µM (inconclusive)

Now take the following compound into account.
Q: Consider the compound c1ccc2[nH]c(-c3cscn3)nc2c1 and give its measured AC50.
Result: 10 µM (inconclusive)

----------
- TARGET ENTITY: UniProtKB Q06710
- Sequence (Q06710 whole entry): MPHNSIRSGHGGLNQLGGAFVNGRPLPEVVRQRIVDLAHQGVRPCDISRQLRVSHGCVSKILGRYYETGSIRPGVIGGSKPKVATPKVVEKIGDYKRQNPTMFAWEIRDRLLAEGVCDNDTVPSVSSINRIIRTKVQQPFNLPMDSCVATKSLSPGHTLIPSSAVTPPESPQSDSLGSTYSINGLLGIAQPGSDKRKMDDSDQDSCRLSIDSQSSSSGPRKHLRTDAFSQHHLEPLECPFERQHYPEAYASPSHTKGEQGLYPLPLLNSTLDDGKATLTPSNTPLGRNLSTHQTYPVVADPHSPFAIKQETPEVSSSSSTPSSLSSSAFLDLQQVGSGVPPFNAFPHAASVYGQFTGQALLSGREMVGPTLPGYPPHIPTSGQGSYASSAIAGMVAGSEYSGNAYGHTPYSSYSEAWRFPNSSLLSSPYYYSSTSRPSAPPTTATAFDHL
- ASSAY METHOD TEXT: PAX8 transcriptional activity inhibition in RMG-I – RMG-I cells, luciferase, cherry-pick, dose response (AID 687027);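 further: luciferase reporter driven by Pax8 target thyroperoxidase promoter measured by SteadyGlo luminescence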
- Type: functional, cell-based
Activity calls are given as the source filed them.
READOUT: AC50

Cc1ccc(S(=O)(=O)Nc2ccc3c(c2)CC(=O)N([C@H](C)CO)C[C@H](C)[C@H](CN(C)S(=O)(=O)c2ccc(F)cc2)O3)cc1: 25.3 µM (active)
CC[C@@H](C(=O)[C@@H](C)[C@@H](O)[C@H](C)CCc1ccc(C)c(O)c1C(=O)O)[C@H]1O[C@](CC)([C@H]2CC[C@](O)(CC)[C@H](C)O2)C[C@@H]1C [LASALOCID A SODIUM]: 3.52 µM (active)
C[C@@H]1CN([C@@H](C)CO)C(=O)Cc2cc(NS(=O)(=O)c3cccs3)ccc2O[C@H]1CN(C)Cc1ccc(C(F)(F)F)cc1: 5.33 µM (active)
C[C@@H]1CN([C@@H](C)CO)C(=O)Cc2cc(NC(=O)c3ccncc3)ccc2O[C@@H]1CN(C)Cc1ccc(-c2ccccc2)cc1: 22.3 µM (active)
COc1ccccc1C(=O)Nc1nc2ccccc2[nH]1: 2.04 µM (active)
O=C(Nc1cccc(F)c1)N1C[C@@H]2N[C@H](C1)[C@@H]2c1ccc(-c2ccc(F)cc2)cc1: 19.5 µM (active)
COC(=O)C1=C(c2ccc(F)cc2OCc2ccccc2)C[C@@H]2CC[C@H]1N2C(=O)NCc1ccc(C(F)(F)F)cc1: 10.9 µM (active)

Now take the following compound into account.
Q: Consider the compound COc1ccc(NC(=O)c2cc([N+](=O)[O-])ccc2O)cc1 and give its measured AC50.
Result: 5.39 µM (active)

----------
The source made the active and inactive calls.
A short record of AC50 observed with Cytochrome P450 2D6 (Homo sapiens, UniProt P10635) follows.

COc1ccc(N(CC(=O)N/N=C/c2cccs2)S(=O)(=O)c2ccc(OC)c(OC)c2)cc1: 31.6 µM (inconclusive)
CCC(NC(=O)C1(C)CC1(Br)Br)c1ccc(C)cc1 (stereo not given): 7.94 µM (inconclusive)
CC(=O)/N=c1\sccn1CC(=O)c1ccc([N+](=O)[O-])cc1: 14.1 µM (inconclusive)

Q: Consider the compound Cc1ccnn2cc3c(=O)n(C)c(=O)n(C)c3c12 and give its measured AC50.
Result: 20 µM (inconclusive)

Q: Same again, this time with COc1ccc(CCN2CCC(Nc3nc4ccccc4n3Cc3ccc(F)cc3)CC2)cc1
Result: 7.94 µM (active)
